src = the supplement of paper PMC10567573

Listed below: protein stability index values for each entry.
B1: IFRG15 (parent)
chain: INRADYCPECYPDNPANRSLVLPW

- Variants of: B1
- PROTOCOL: protein stability index of a GFP-peptide fusion (GPS, HEK-293T) (PSI 1-6); higher = more stable;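 note: lentivirally expressed fusions sorted by FACS into six bins by GFP to DsRed ratio, PSI derived from sequencing read proportions per bin multiplied by bin number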
- SETTINGS: c terminus: a fixed tail appended

VARIANT SPEC	protein stability index
S19Q	2
N17C	2.03
N14V	2.04
P15N	1.97
